# assay-procedure: in vivo
# study-conditions: both, Beagle, dog, po, 0.125 mg/kg, AUC0-96
measure-name: AUC(0-t) (ng·h/mL)

INSERT INTO assay_data (line_notation, measured_number) VALUES
  ('COc1ccc(-c2c(-c3ccc(C#N)c(F)c3)nc(N3CCC(N)CC3)n(C)c2=O)cc1F', 127);

---

# assay-procedure: Pharmacokinetics after IV and oral dose, mice
# Format: in vivo, CD-1 mice
# study-conditions: CD-1, plasma; mouse, female, single IV dose 5 mg; read-out: Vss
measure-name: Vd

INSERT INTO measurements (line_notation, measure_name, result) VALUES
  ('COc1ccc(-c2c(-c3ccc(C#N)c(F)c3)nc(N3CCC(N)CC3)n(C)c2=O)cc1F', 'Vd', '7.51 L/kg');
